assay: splicing luciferase reporter signal modulators, primary screen, spliceosome inhibition project, cell-based, HEK293, splice +/- reporter (AID 1101); conditions: luminescence, 24 h, higher = more signal, called active from +8 up or from −8 down;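 also: HEK293 cells carrying a splicing-competent luciferase reporter gene; test concentration not given here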
The source made the active and inactive calls.
z-score: recorded values

| smiles-repr | z-score |
| --- | --- |
| CCOC(=O)C[C@H]1[C@H](OC(=O)c2ccc(C(=O)c3ccccc3)cc2)[C@@H](NC(=O)c2ccccc2)c2cc(OCCCO)ccc2N1C(=O)c1ccc2ccccc2n1 | 0.487 (inactive) |
| CCOC(=O)C1=C[C@@H](C(C)(C)C)N(S(=O)(=O)c2ccc(C)cc2)[C@H]1c1ccc(F)cc1 | -0.711 (inactive) |
| C=CCOC(=O)[C@@H]1[C@H]2C(=O)O[C@H](c3ccccc3)[C@H](c3ccccc3)N2[C@H](c2ccc(OCCOC(=O)[C@H]3C[C@H]4C(=O)N5CCC[C@H]5C(=O)N4[C@H]3c3ccc(O)cc3)cc2)[C@@]12C(=O)Nc1ccc(I)cc12 | -1.27 (inactive) |
